Target: T1, TX1BP3, O14907
T1 sequence (O14907 10-122, limits assumed, looked up): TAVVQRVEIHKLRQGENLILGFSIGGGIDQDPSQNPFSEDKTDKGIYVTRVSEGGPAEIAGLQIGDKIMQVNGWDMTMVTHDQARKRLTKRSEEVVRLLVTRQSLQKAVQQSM
Assay: holdup assay
Parameters: key: below the threshold = too weak to quantify, mostly under pKd 3.1 to 4
Conditions: plain residues with an end cap or a label only (N-terminal biotin on a linker: ado-ado)
Measured pKd, listed per entry.
RECORDED_ENDPOINT: pKd

                          binder  test_value
0      THREVKFTSL [CD46, P15529]        4.37
1  QLKSGRDSTV [TMEM178A, Q8NBL3]        3.91
2      IGHEDLETAV [DGKI, O75912]         4.3
3    TKEIPNCTSV [SORCS3, Q9UPU3]        4.47
4    IQISELETNV [SLC1A7, O00341]        4.03
5   ADEMICITTL [CACNA1D, Q01668]        3.87
6    FLVTEFNVML [DFNB31, Q9P202]        3.96
7    HYPASPDSWV [CTNND2, Q9UQB3]        5.15
